MEASURED_TARGET: T1, hCD37-M1 (human/murine chimera, UniProt P11049 1-281)
T1 construct: stably expressed on 300-19 cells; also called hCD37-M1 variant
T1 chain: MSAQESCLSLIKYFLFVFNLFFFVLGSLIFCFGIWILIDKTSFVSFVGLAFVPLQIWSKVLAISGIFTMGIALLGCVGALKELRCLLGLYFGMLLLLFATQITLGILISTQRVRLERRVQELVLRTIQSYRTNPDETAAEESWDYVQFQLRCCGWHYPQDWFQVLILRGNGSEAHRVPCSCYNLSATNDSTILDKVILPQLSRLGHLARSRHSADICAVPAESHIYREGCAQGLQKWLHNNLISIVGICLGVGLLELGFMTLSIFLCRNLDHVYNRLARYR
METHOD_NOTES: flow cytometry, 300-19 cells expressing hCD37-M1, 1.5 µg/mL antibody
PARAMETER: binding result

muCD37-50 (antibody, mouse IgG2a, kappa, V domains shown, Murine hybridoma antibody) VH: DVQLQESGPDLLKPSQSLSLTCTVTGYSITSGFAWHWIRQFPGNKLEWMGYILYSGSTVYSPSLKSRISITRDTSKNHFFLQLNSVTTEDTATYYCARGYYGYGAWFAYWGQGTLVTVSA VL: QIVLTQSPAIMSASPGEKVTMTCSATSSVTYMHWYQQKSGTSPKRWIYDTSKLPYGVPGRFSGSGSGTSYSLTISSMEAEDAATYYCQQWSDNPPTFGSGTKLEIKR :: binds

These measurements were taken from patent US20110256153A1.
